src = patent US20220119472A1

targetOrSystem: T1, recombinant His6-tagged extracellular domain of human Clec4C (C-type lectin domain family 4, member C) (human, UniProt Q8WTT0 44-213)
T1 construct: Same antigen for immunisation, panning and ELISA; also called His-Clec4C(EC); pMET7-SIgK-His-Clec4C(EC)
T1 sequence: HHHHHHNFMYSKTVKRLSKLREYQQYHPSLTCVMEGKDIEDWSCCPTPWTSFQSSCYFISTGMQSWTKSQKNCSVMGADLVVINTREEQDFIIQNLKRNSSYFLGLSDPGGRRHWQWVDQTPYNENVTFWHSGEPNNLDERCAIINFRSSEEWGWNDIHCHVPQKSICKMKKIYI
protocolDescription: ELISA, antigen-coated vs uncoated blocked wells
attributeMeasured: ELISA ratio coated/uncoated
Returns: the value as a bare number; no unit string appended.

| binder | attributeMeasured | measuredResult |
| --- | --- | --- |
| 2CL87 (VHH, pMECS VHH-HA-His6; TG1 periplasmic extract) VHH: QVQLQESGGGLVQPGGSLRLSCAGSGSTFRHHAMAWFRQTPGKEREFVSAINDHGDRTKYTDSVRGRFTISRDNTDNMVYLQMSDLRPEDTAVYSCAAGPLVDYLETTPLVYTYWGQGTQVTVSS | ELISA ratio coated/uncoated | 11.5 |

Task: What ELISA ratio coated/uncoated value was documented for this binder, 2CL65 (VHH, pMECS VHH-HA-His6; TG1 periplasmic extract) VHH: QVQLQESGGGLVQPGGSLRLSCAASGRIFSINAMGWYRQAPGKQRELVAVISRSGISNYVDSVKGRFTISRDNAKNTVYLQMNSLNPEDTADYYCNADVLLTFNKREDSWGQGTQVTVSS ?
Result: 9.33
